Structures can show the parent of a compound that is named as a salt.
reported_metric: melting point

molecule="CCN1CCN(c2nc(-c3ccc(OCCO)c(F)c3)cc3ccccc23)CC1 (as salt: hydrochloride) [Example 369, dihydrochloride]" reported_metric="melting point" measured_value="119 to 120 °C"
molecule="CCN1CCN(c2nc(C#Cc3ccccn3)cc3ccccc23)CC1 (as salt: oxalate) [Example 179]" reported_metric="melting point" measured_value="148 to 154 °C"
molecule="CCN1CCN(c2nc(-c3ccc(CO)c(CO)c3)cc3ccccc23)CC1 (as salt: hydrochloride) [Example 394, Dihydrochloride]" reported_metric="melting point" measured_value="130.5 to 132 °C (dec.)"
molecule="CCN1CCN(c2nc(-c3ccc([C@@H]4C[C@@H](O)CCO4)cc3)cc3ccsc23)CC1 (relative stereo) (as salt: hydrochloride) [Example 455, dihydrochloride]" reported_metric="melting point" measured_value="146 to 148 °C"
molecule="CCN1CCN(c2nc(-c3ccc(N4CCOCC4)nc3)cc3ccsc23)CC1 (as salt: hydrochloride) [Example 263]" reported_metric="melting point" measured_value="182 to 185 °C"
molecule="CCN1CCN(c2nc(-c3ccc(S(=O)(=O)NC)cc3)cc3ccccc23)CC1 (as salt: hydrochloride) [Example 361, dihydrochloride]" reported_metric="melting point" measured_value="170 to 172 °C"
molecule="CCN1CCN(c2nc(-c3ccc([C@H]4CC[C@@H](O)CC4)cc3)cc3ccccc23)CC1 (as salt: hydrochloride) [Example 397, Dihydrochloride]" reported_metric="melting point" measured_value="152 to 153 °C"
molecule="CCS(=O)(=O)NCc1ccc(-c2cc3ccccc3c(N3CCN(CCO)CC3)n2)cc1 (as salt: hydrochloride) [Example 243]" reported_metric="melting point" measured_value="171 to 174 °C"
molecule="COc1ccc(-c2cc3ccccc3c(N3CCN(CCO)CC3)n2)cc1 (as salt: hydrochloride) [Example 242, Dihydrochloride]" reported_metric="melting point" measured_value="163 to 165 °C"
molecule="CCN1CCN(c2nc(-c3ccc(C(=O)N(C)CCO)cc3)cc3ccccc23)CC1 (as salt: oxalate) [Example 382]" reported_metric="melting point" measured_value="116 to 118 °C"
molecule="CCN1CCN(c2nc(-c3ccc(S(=O)(=O)CCCO)cc3)cc3ccccc23)CC1 (as salt: hydrochloride) [Example 352, dihydrochloride]" reported_metric="melting point" measured_value="213 to 215 °C (dec.)"
molecule="CCN1CCN(c2nc(-c3ccc(CCC(C)O)cc3)cc3ccoc23)CC1 (stereo not shown) (as salt: hydrochloride) [Example 300, dihydrochloride]" reported_metric="melting point" measured_value="175 to 177 °C"
molecule="CCN1CCN(c2nc(/C=C(\\C)c3ccc(N4CCOCC4)cc3)cc3ccccc23)CC1 (as salt: oxalate) [Example 206]" reported_metric="melting point" measured_value="266 to 267 °C"
